Please provide measured HPLC Area Percentage for the entries that follow.
- test protocol: Chemical and isotopic stability as solutions in DMSO/phosphate buffered saline over 48 hours
- condition label: DMSO/PBS solution, 37° C., 24 h
Give just the numeric value; % need not be written.

// query Query (compound): [2H]C([2H])([2H])C(CCCCCCCCCCC(CC(=O)O)(C([2H])([2H])[2H])C([2H])([2H])[2H])(CC(=O)O)C([2H])([2H])[2H] ; field requested: HPLC Area Percentage
// result 98.6

// query Field entry: [2H]C([2H])([2H])C(CCCCCCCCCCCCC(C(=O)O)(C([2H])([2H])[2H])C([2H])([2H])[2H])(C(=O)O)C([2H])([2H])[2H]
// result 96.9

// query Field entry: [2H]C([2H])([2H])C(CCCCCCCCCCC(C([2H])([2H])[2H])(C([2H])([2H])[2H])C([2H])([2H])C(=O)O)(C([2H])([2H])[2H])C([2H])([2H])C(=O)O
// result 97.6

// query Field entry: [2H]C([2H])([2H])C(CCCCCCCCCCCCC(C([2H])([2H])[2H])(C([2H])([2H])[2H])C([2H])([2H])C(=O)O)(C([2H])([2H])[2H])C([2H])([2H])C(=O)O
// result 96.5

// query Field entry: [2H]C([2H])([2H])C(CCCCCCCCCCCCCCC(C(=O)O)(C([2H])([2H])[2H])C([2H])([2H])[2H])(C(=O)O)C([2H])([2H])[2H]
// result 96.0

* * *

- test protocol: Comparative oral bioavailability / pharmacokinetic study, single intravenous and oral administration
- Type: in vivo
- condition label: rat, 5 mg/kg iv, Mean CV (%)
test readout: AUCinf

// query Query (molecule): [2H]C([2H])([2H])C(CCCCCCCCCCC(C([2H])([2H])[2H])(C([2H])([2H])[2H])C([2H])([2H])C(=O)O)(C([2H])([2H])[2H])C([2H])([2H])C(=O)O ; field requested: AUCinf
// result 137 (19.3%) h * μg/ml

// query Field entry: CC(C)(CCCCCCCCCCC(C)(C)CC(=O)O)CC(=O)O [Compound 1″, reference compound]
// result 124 (23.6%) h * μg/ml

// query Field entry: CC(C)(CCCCCCCCCCCCC(C)(C)C(=O)O)C(=O)O [Compound 7″, reference compound]
// result 128 (13.4%) h * μg/ml

// query Field entry: [2H]C([2H])([2H])C(CCCCCCCCCCCCC(C(=O)O)(C([2H])([2H])[2H])C([2H])([2H])[2H])(C(=O)O)C([2H])([2H])[2H]
// result 218 (14.9%) h * μg/ml

* * *

- test protocol: Chemical and isotopic stability as solutions in DMSO/phosphate buffered saline over 48 hours
- condition label: DMSO/PBS solution, 37° C., 48 h
test readout: GC/MS IE (isotopic enrichment) (%)
Give just the numeric value; % need not be written.

// query Query (compound): [2H]C([2H])([2H])C(CCCCCCCCCCCCC(CC(=O)O)(C([2H])([2H])[2H])C([2H])([2H])[2H])(CC(=O)O)C([2H])([2H])[2H] ; field requested: GC/MS IE (isotopic enrichment)
// result 99.1

// query Field entry: [2H]C([2H])([2H])C(CCCCCCCCCCCCCCC(C(=O)O)(C([2H])([2H])[2H])C([2H])([2H])[2H])(C(=O)O)C([2H])([2H])[2H]
// result 99.9

// query Field entry: [2H]C([2H])(C(=O)O)C(C)(C)CCCCCCCCCCC(C)(C)C([2H])([2H])C(=O)O
// result 98.0

// query Field entry: [2H]C([2H])([2H])C(CCCCCCCCCCCCC(C([2H])([2H])[2H])(C([2H])([2H])[2H])C([2H])([2H])C(=O)O)(C([2H])([2H])[2H])C([2H])([2H])C(=O)O
// result 98.3

// query Field entry: [2H]C([2H])([2H])C(CCCCCCCCCCC(CC(=O)O)(C([2H])([2H])[2H])C([2H])([2H])[2H])(CC(=O)O)C([2H])([2H])[2H]
// result 99.9
